Measured values drawn from patent US10947242B2 for this set.

Molecular target: Human recombinant PDE10A (hPDE10A) (Homo sapiens)
Construct: His tag (inferred from metal chelate purification); made in house; host or cells: Sf9 insect cells (baculovirus)
Sequence (Q9Y233 267-1055): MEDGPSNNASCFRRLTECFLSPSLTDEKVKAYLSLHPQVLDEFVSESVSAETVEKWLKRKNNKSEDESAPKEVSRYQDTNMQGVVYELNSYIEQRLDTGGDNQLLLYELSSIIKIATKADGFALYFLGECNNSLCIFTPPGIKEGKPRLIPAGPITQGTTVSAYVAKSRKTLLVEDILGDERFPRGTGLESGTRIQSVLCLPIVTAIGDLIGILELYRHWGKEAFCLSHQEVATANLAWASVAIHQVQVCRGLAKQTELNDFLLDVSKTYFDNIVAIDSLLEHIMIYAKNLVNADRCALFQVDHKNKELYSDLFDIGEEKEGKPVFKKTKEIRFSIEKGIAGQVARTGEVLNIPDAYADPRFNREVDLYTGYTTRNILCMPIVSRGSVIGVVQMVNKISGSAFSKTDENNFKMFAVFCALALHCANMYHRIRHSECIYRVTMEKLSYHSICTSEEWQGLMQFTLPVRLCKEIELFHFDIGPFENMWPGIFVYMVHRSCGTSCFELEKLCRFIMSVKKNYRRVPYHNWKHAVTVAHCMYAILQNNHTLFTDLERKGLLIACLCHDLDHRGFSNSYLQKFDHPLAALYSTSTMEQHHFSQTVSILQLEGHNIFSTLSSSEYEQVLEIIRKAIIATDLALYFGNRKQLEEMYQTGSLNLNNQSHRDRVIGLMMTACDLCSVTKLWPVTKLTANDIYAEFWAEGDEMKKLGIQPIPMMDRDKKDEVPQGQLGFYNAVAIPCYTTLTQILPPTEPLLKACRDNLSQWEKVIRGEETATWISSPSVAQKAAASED
Assay: In vitro assay PDE10A, human clone (SPA, 3H-cAMP hydrolysis)
Assay type: biochemical
Settings: human clone (h), default

{"columns": ["compound", "hPDE10A2 Emax"],
 "data": [
  ["Cc1cc(C(=O)N2CC[C@@H](C)[C@H](c3cc(C#N)nc4ncnn34)C2)cc(C)n1 [Compound 26a]", 7],
  ["C[C@@H]1CCN(C(=O)c2ccc3ocnc3c2)C[C@H]1c1cc(C(F)F)nc2ncnn12 [Compound 116]", 98],
  ["O=C(c1ccc2ncsc2c1)N1[C@H]2CC[C@H](c3cc(C(F)F)nc4ncnn34)[C@@H]1CC2 [Compound 25a]", 96],
  ["Cc1cc(C(=O)N2CC[C@@H](C)[C@H](c3cc(C(F)F)nc4ncnn34)C2)c(F)c(C)n1 [Compound 70]", 95],
  ["O=C(c1ccc2ncsc2c1)N1[C@H]2CC[C@@H]1[C@H](c1cc(C(F)F)nc3ncnn13)CC2 [Compound 25b]", 28],
  ["Cc1cc(C(=O)N2CC[C@H](C)[C@@H](c3cc(C)nc4ncnn34)C2)cc(C)n1 [Compound 1b]", 50],
  ["Cc1cc(C(=O)N2CC[C@@H](C)[C@](F)(c3cc(C(F)F)nc4ncnn34)C2)cc(C2CC2)n1 [Compound 24b]", 60],
  ["Cc1cc(C(=O)N2[C@H]3CC[C@H](c4cc(C(F)F)nc5ncnn45)[C@@H]2CC3)cc(C)n1 (racemic) [Compound 31]", 84],
  ["Cc1cc(C(=O)N2CC[C@H](C)[C@@H](c3cc(C#N)nc4ncnn34)C2)cc(C)n1 [Compound 26b]", 95]
]}
